assay_name: Cytotoxicity against HEK293 cells expressing ACE2 cells assessed as reduction in cell viability relative to control
test_context: human
readout_kind: Emax (%)
# output: bare number, implied unit %

Known results for compounds:
CC(Nc1nc(N2CCNCC2)nc2ccccc12)c1ccccc1N (stereo not drawn) ... 0
C[C@H](Nc1nc(N2CCNCC2)nc2ccccc12)c1ccccc1 ... 0

Request: For CC(Nc1nc(N2CCNCC2)nc2cc(Br)ccc12)c1ccccc1 (stereo not drawn) , what is its reported Emax?
Response: 72.1

###

Tested on: SARS-CoV
assay_name: microbe, parasite or virus in culture
Type: functional, organism-based
test_context: Severe acute respiratory syndrome-related coronavirus, Huh-7, 24 h
readout_kind: IC50 (µM)
# output: bare number, implied unit µM

Request: For CC(Nc1nc(N2CCNCC2)nc2ccccc12)c1c(F)cccc1F (stereo unspecified) , what is its reported IC50?
Response: 1.65
